Tested on: Plasmodium falciparum
Test: Calibr Malaria Delayed Death Assay SOP
Type: functional, organism-based
Please respond with reported pIC50 for every item in the list.
Answers are plain numbers.

O=C(O)C(F)(F)F.c1ccc(N2CCCC3(CCN(Cc4ccsc4)C3)C2)nc1 (stereo unspecified)	6.157
Cc1oc(-c2cc(F)cc(F)c2)nc1CN1C[C@@H](C)NC[C@@H]1C	5.947
Cc1ccccc1CNCC(O)c1ccc(OC(C)C)cc1 (stereo unspecified)	6.206
CC(=O)N(c1ccc(C)cc1)c1nc(CN2CCCC(C)C2)cs1 (stereo unspecified)	5.762
COc1cccc(CNC(CN2CCN(C)CC2)c2ccccc2)c1 (stereo unspecified)	6.596

Give measured pIC50 for every item shown.
1. O=S(=O)(NCC(c1ccsc1)N1CCCCCC1)c1cccs1 (stereo unspecified)
2. CN1CCC(C2CCN(Cc3cccc(-n4cccn4)c3)CC2)C1 (stereo unspecified)
3. O=C(C1CNCCO1)N1CCCC(c2ccccc2)(c2ccccc2)C1 (stereo unspecified)
4. Clc1cc(CN2CCCN3CCCC3C2)c2ncccc2c1 (stereo unspecified)
5. Cc1nc(-c2cc(Cl)c3c(c2)CC(CN)O3)c[nH]1 (stereo unspecified)

1. 6.118
2. 6.139
3. 6.124
4. 5.897
5. 5.986

Give the measured pIC50 of `CC1(C)CC(N(Cc2ccccc2)Cc2cccnc2)CC(C)(C)N1.O=C(O)CC(O)(CC(=O)O)C(=O)O` . 5.927
